experiment: M. tuberculosis H37Rv growth inhibitors, H37Rv strain (AID 1626); details: hits give high values, concentration not given here;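 further: bacteria incubated seven days before Alamar blue readout; 0% = bacteria only wells and 100% = bacteria with antibiotic wells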
Hit rate of the full screen: of about 220,000 compounds, about 2,000 (0.91%) were called active. About 2% were inconclusive and are not listed. Only a sample is shown. Potency and affinity values are given separately.
measured-parameter: inhibition (%)
Report the figure in % without appending any unit label.

Previously resolved entries follow.
>  <compound>
CC1CCc2nc(NC(=O)CN3CCOCC3)sc2C1 (stereo not drawn)

>  <inhibition / %>
23.3

$$$$
>  <compound>
Cc1ccc(-c2nn(-c3cccc(F)c3)cc2CNCc2cccnc2)o1

>  <inhibition / %>
12.8

$$$$
>  <compound>
COc1cccc(OC)c1C(=O)Nc1cc(C)nn1-c1nc2ccccc2[nH]1

>  <inhibition / %>
53.2

$$$$
>  <compound>
Cc1cc(N2C(=O)C3CCCN3C2c2cccc(Cl)c2)no1 (stereo not drawn)

>  <inhibition / %>
-8.92

$$$$
>  <compound>
O=C1C2C3CCC(C3NCc3ccccc3)C2C(=O)N1Cc1ccccc1 (stereo not drawn)

>  <inhibition / %>
-0.18

$$$$
>  <compound>
Cc1cc(NC(=O)c2ccc(C)s2)n(-c2nc3ccccc3[nH]2)n1

>  <inhibition / %>
83.6

$$$$
>  <compound>
COc1ccc(C(=O)Nc2ccc(N3CCN(Cc4ccccc4)CC3)cc2)cc1

>  <inhibition / %>
4.64

$$$$
>  <compound>
CC(C)OP(=O)(OC(C)C)C(NCc1ccccc1)c1ccccc1 (stereo not drawn)

>  <inhibition / %>
4.8

$$$$
>  <compound>
c1csc(-c2csc3nc(CN4CCOCC4)nc(NCc4ccc5c(c4)OCO5)c23)c1

>  <inhibition / %>
-6.15

$$$$
>  <compound>
Cc1ccc(-c2noc(CCC(=O)Nc3ccc4c(c3)OCO4)n2)cc1

>  <inhibition / %>
67.5

$$$$

Q. Query: inhibition; subject: Clc1ccc(OCCn2ccnc2)c(Cl)c1
A. -5.05

Q. Query: inhibition; subject: Cc1cc(NC(=O)c2ccccc2F)n(-c2nc3ccccc3[nH]2)n1
A. 55.8

----------
Listing of recorded inhibition by entry.
assay: M. tuberculosis H37Rv growth inhibitors, H37Rv strain (AID 1626); details: hits give high values, concentration not given here;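 further: bacteria incubated seven days before Alamar blue readout; 0% = bacteria only wells and 100% = bacteria with antibiotic wells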
Out of some 220,000 compounds screened, about 2,000 (0.91%) were called active. Another 2% or so got no clear call; they are omitted. These entries were drawn from the full list. Potency and affinity values are given separately.
Report the figure in % without appending any unit label.

>  <molecule>
CCc1ccc(/C=C(\C)C(=O)c2c(C)cc(C)[nH]c2=O)cc1

>  <measured-parameter>
inhibition

>  <unit-string>
%

>  <data-value>
5.72

$$$$
>  <molecule>
COC(=O)CC(c1ccc(F)cc1)n1c(C)ccc1C (stereo not drawn)

>  <measured-parameter>
inhibition

>  <unit-string>
%

>  <data-value>
-0.04

$$$$
>  <molecule>
CC(C)(C)C(=O)/C=c1\[nH]c(=O)/c(=C\c2ccc(C#N)cc2)s1

>  <measured-parameter>
inhibition

>  <unit-string>
%

>  <data-value>
75.3

$$$$
>  <molecule>
CCOC(=O)N1CCN(S(=O)(=O)c2ccc3c(c2)CCN3C(=O)CC)CC1

>  <measured-parameter>
inhibition

>  <unit-string>
%

>  <data-value>
-14.9

$$$$
>  <molecule>
COc1cc(/C=c2\s/c(=C\C(=O)C(C)(C)C)[nH]c2=O)cc(OC)c1OC

>  <measured-parameter>
inhibition

>  <unit-string>
%

>  <data-value>
66.3

$$$$
>  <molecule>
CC(C)(C)C(=O)/C=c1\[nH]c(=O)/c(=C\c2ccccc2F)s1

>  <measured-parameter>
inhibition

>  <unit-string>
%

>  <data-value>
79.9

$$$$
>  <molecule>
O=[N+]([O-])c1ccc(O)c2ncccc12

>  <measured-parameter>
inhibition

>  <unit-string>
%

>  <data-value>
79

$$$$
>  <molecule>
O=C(COCC(=O)NCc1ccccc1)NCc1ccccc1

>  <measured-parameter>
inhibition

>  <unit-string>
%

>  <data-value>
-4.59

$$$$

Q. Query: inhibition; subject: COC(=O)c1ccc(COc2cc([N+](=O)[O-])cc3cccnc23)cc1
A. -7.07

Q. Query: inhibition; subject: CCN(CC(=O)NCCC1=CCCCC1)S(=O)(=O)c1ccccc1
A. -1.16
